Tested on: 817829-284-R-J1-PDC complex spheroids, viability
EXPERIMENTAL PROTOCOL: Anticancer human tumor 817829-284-R-J1-PDC patient-derived colon adenocarcinoma cell line growth inhibition [GQUAD]; active = viability on the fitted dose curve at most 10% of control; inactive = the rest
CONDITION PARAMETERS: second compound 1 µM; first compound 0.316 µM
Choose the fitting class; nothing outside active, inactive is accepted.

[
  {
    "MOLECULE": "Cc1[nH]c2ccccc2c1CCNCc1ccc(/C=C/C(=O)NO)cc1 + Cc1cnc(CNC(=O)c2c(=O)c3ccc(N4CCCN(C)CC4)nc3n3c2sc2ccccc23)cn1",
    "MEASUREMENT TARGET": "817829-284-R-J1-PDC complex spheroids, viability",
    "CLASS NAME": "active"
  },
  {
    "MOLECULE": "Cc1cccc(N(C)C(=O)C2C(O)CCN2c2nc(C)cc(C(F)(F)F)c2C#N)c1 (stereo unspecified) + CN(C)c1ccc(Nc2c3ccc(NC(=O)CCN4CCCC4)cc3nc3cc(NC(=O)CCN4CCCC4)ccc23)cc1",
    "MEASUREMENT TARGET": "817829-284-R-J1-PDC complex spheroids, viability",
    "CLASS NAME": "inactive"
  },
  {
    "MOLECULE": "C=CCn1c(=O)c2cnc(Nc3ccc(N4CCN(C)CC4)cc3)nc2n1-c1cccc(C(C)(C)O)n1 + CN(C)c1ccc(Nc2c3ccc(NC(=O)CCN4CCCC4)cc3nc3cc(NC(=O)CCN4CCCC4)ccc23)cc1",
    "MEASUREMENT TARGET": "817829-284-R-J1-PDC complex spheroids, viability",
    "CLASS NAME": "inactive"
  },
  {
    "MOLECULE": "O=C(NO)c1cnc(N2CCN(S(=O)(=O)c3ccc4ccccc4c3)CC2)nc1 + Cc1cnc(CNC(=O)c2c(=O)c3ccc(N4CCCN(C)CC4)nc3n3c2sc2ccccc23)cn1",
    "MEASUREMENT TARGET": "817829-284-R-J1-PDC complex spheroids, viability",
    "CLASS NAME": "active"
  },
  {
    "MOLECULE": "Cc1cccc(N(C)C(=O)C2C(O)CCN2c2nc(C)cc(C(F)(F)F)c2C#N)c1 (stereo unspecified) + Cc1[nH]c2ccc(F)cc2c1-c1nc2c3cccnc3c3ncccc3c2[nH]1",
    "MEASUREMENT TARGET": "817829-284-R-J1-PDC complex spheroids, viability",
    "CLASS NAME": "inactive"
  }
]

Turning to the following molecule.
Ask | What did the test return for Nc1ccn(C2OC(CO)C(O)C2(F)F)c(=O)n1 (stereo unspecified) + Cc1[nH]c2ccc(F)cc2c1-c1nc2c3cccnc3c3ncccc3c2[nH]1 ?
Reply | active

* * *

Test system: 817829-284-R-J1-PDC complex spheroids, viability
EXPERIMENTAL PROTOCOL: Anticancer human tumor 817829-284-R-J1-PDC cell line growth inhibition [GQUAD];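 note: spheroids exposed to agents for 7 days before readout; percent viability relative to DMSO vehicle control taken as 100%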
CONDITION PARAMETERS: second compound 0.0316 µM; first compound 3.16 µM; hits give low values
MEASUREMENT LABEL: viability, T/C (%)
Write down the numeric answer in % and omit the unit.

Worked set:
[
  {
    "COMPOUND": "CC1COCCN1c1cc(C2(S(C)(=N)=O)CC2)nc(-c2ccnc3[nH]ccc23)n1 (stereo not given) + Cc1cnc(CNC(=O)c2c(=O)c3ccc(N4CCCN(C)CC4)nc3n3c2sc2ccccc23)cn1",
    "OBSERVED": 12.5
  },
  {
    "COMPOUND": "O=C(NO)c1cnc(N2CCN(S(=O)(=O)c3ccc4ccccc4c3)CC2)nc1 + Cc1[nH]c2ccc(F)cc2c1-c1nc2c3cccnc3c3ncccc3c2[nH]1",
    "OBSERVED": 0.1
  },
  {
    "COMPOUND": "C#Cc1c(F)ccc2cc(O)cc(-c3ncc4c(N5CC6CCC(C5)N6)nc(OCC56CCCN5CC(F)C6)nc4c3F)c12 (stereo not given) + Cc1[nH]c2ccc(F)cc2c1-c1nc2c3cccnc3c3ncccc3c2[nH]1",
    "OBSERVED": 98
  },
  {
    "COMPOUND": "C=CC(=O)N1CCN(c2nc(=O)n(-c3c(C)ccnc3C(C)C)c3nc(-c4c(O)cccc4F)c(F)cc23)C(C)C1 (stereo not given) + Cc1cnc(CNC(=O)c2c(=O)c3ccc(N4CCCN(C)CC4)nc3n3c2sc2ccccc23)cn1",
    "OBSERVED": 76.5
  }
]

Proceed to the following item.
Ask | May I ask what viability, T/C has been recorded for O=C(NO)c1cnc(N2CCN(S(=O)(=O)c3ccc4ccccc4c3)CC2)nc1 + CN(C)c1ccc(Nc2c3ccc(NC(=O)CCN4CCCC4)cc3nc3cc(NC(=O)CCN4CCCC4)ccc23)cc1 ?
Reply | 0.18
